Test system: SNB-19 CNS
Assay: NCI-60 one-dose screen, 48 h (100 = growth as untreated, 0 = no growth, -100 = all killed)
Conditions: 10 µM
Compounds without any hit were thinned out: in the full panel of roughly 83,000, 20% have a hit.

Compound: C=CCN=C([Se])NC(=O)c1ccc2c(c1)OCO2
growth, %: 39.2

Compound: C#CC[Se]C(=O)c1ccc(C(=O)[Se]CC#C)s1
growth, %: 58.7

Compound: CC12OOC(C)(OO1)C2CCC(=O)NCCNc1ccnc2cc(Cl)ccc12 (centres undefined)
growth, %: 98.2

Compound: COc1cc(OC)c(/C=C/C(=O)c2nc3ccccc3n2Cc2ccc(F)cc2)c(OC)c1
growth, %: 51.5

Compound: CC(=O)Oc1ccccc1C(=O)[Se]C(=NC(C)C)NC(C)C
growth, %: -88.5

Compound: COC(=O)C[C@](O)(CCCC(C)C)C(=O)O[C@H]1C(OC)=C[C@@]23CCCN2CCc2cc4c(cc2[C@@H]13)OCO4
growth, %: -27.7

Compound: COc1cc(OC)c(S(=O)(=O)N(CCCl)CCCl)cc1C(=O)/C=C/c1cc(OC)c(OC)c(OC)c1
growth, %: -38.6

Compound: CC12OOC(C)(OO1)C2CCC(=O)OCCNc1ccnc2cc(Cl)ccc12 (centres undefined)
growth, %: 97.6

Compound: Cc1ccc2[nH]c(=S)n(-c3ccc(F)cc3)c(=O)c2c1
growth, %: 90.3

Compound: COc1cc2cc(C(=O)N3C[C@@H](CCl)c4c3cc(OC(=O)N3CCN(C)[C@@H]5CSSC[C@@H]53)c3ccccc43)[nH]c2c(OC)c1OC
growth, %: -9.25

Compound: C#CC[Se]C(=O)c1ccc2n[se]nc2c1
growth, %: 79.9

Compound: O=C(/C=C/c1ccc(Cl)cc1)c1nc2ccccc2n1Cc1ccc(Br)cc1
growth, %: 65.9

Compound: O=C(/C=C/c1ccccc1)c1nc2ccccc2n1Cc1ccc(Br)cc1
growth, %: -90.1

Compound: CCOP(=O)(OCC)C(NC(C)=O)C(=O)SCCN (centres undefined)
growth, %: 96.9

Compound: COc1cc(OC)c(S(=O)(=O)N(CCCl)CCCl)cc1C(=O)/C=C/c1ccc(C)cc1
growth, %: 29.8

Compound: O=C(/C=C/c1ccc(F)cc1)c1nc2ccccc2n1Cc1ccc(F)cc1
growth, %: 13.8

Compound: O=C(NCCCCC(c1ccc(F)cc1)c1ccc(F)cc1)Nc1ccc([N+](=O)[O-])c(C(F)(F)F)c1
growth, %: 17.1

Compound: CC(C)N=C([Se])NC(=O)c1ccccc1
growth, %: 11.4

Compound: CC[C@@]12CC(C(=O)OC)=C3Nc4cc5c(cc4[C@@]34CCN(C[C@H]3O[C@H]31)[C@@H]24)[C@@H]1[C@H](O5)[C@@H](O)[C@@]2(CC)CC(C(=O)OC)=C3Nc4cc(OC)ccc4[C@@]34CCN1[C@@H]24
growth, %: 21.3

###

Test system: HOP-92 NSCLC
Assay: NCI-60 one-dose screen, 48 h (100 = growth as untreated, 0 = no growth, -100 = all killed)
Settings: 10 µM
This is part of a sample that, as a whole, favours compounds with a hit. Of some 83,000 tested, about 20% had one in any assay. The source made the active and inactive calls. The calls were made as follows: active = growth percent below 10; inactive = the rest.
Readout Name: growth

Molecule: C[C@H]1[C@@H](Oc2ccc(-c3cn(-c4ccnc5cc(Cl)ccc45)nn3)cc2)O[C@@H]2OC3(C)CC[C@H]4[C@H](C)CC[C@@H]1[C@@]24OO3
Measured: 29.4% (inactive)
//
Molecule: CC1=C2C(=C[C@@](C)(COP(=O)(Oc3ccccc3)Oc3ccccc3)[C@@H]2O)C(=O)[C@@](C)(O)C12CC2
Measured: -44.8% (active)
//
Molecule: N#C[Se]CC(=O)Nc1cccc(C(F)(F)F)c1
Measured: -69.3% (active)
//
Molecule: CC(C)N=C([Se])NC(=O)c1cccs1
Measured: 88.3% (inactive)
//
Molecule: C#CC[Se]C(=O)c1ccc(C(=O)[Se]CC#C)s1
Measured: 157% (inactive)
//
Molecule: C[C@H]1[C@@H](CC(=O)N[C@@H](Cc2coc3ccccc23)B(O)O)O[C@@H]2OC3(C)CC[C@H]4[C@H](C)CC[C@@H]1[C@@]24OO3
Measured: -68.6% (active)
//
Molecule: CC[C@]12C=CCN3CC[C@@]4(c5ccc(OC)cc5N(C)[C@H]4[C@@](O)(C(=O)OC)[C@@H]1OC(=O)CCCC[P+](c1ccc(C)cc1)(c1ccc(C)cc1)c1ccc(C)cc1)[C@@H]32
Measured: -77.9% (active)
//
Molecule: O=C(/C=C/c1ccc(Cl)cc1)c1nc2ccccc2n1Cc1ccc(F)cc1
Measured: 16.7% (inactive)
//
Molecule: CC(=C\C(=O)Oc1ccc2c3c1OC1C(O)CCC4(O)C(C2)N(CC2CCC2)CCC314)/C=C1\CCCc2ccccc21 (configuration not stated)
Measured: 34.2% (inactive)
//
Molecule: COCCOCCOCCOc1ccc(-n2cc(-c3ccc(O[C@H]4O[C@@H]5OC6(C)CC[C@H]7[C@H](C)CC[C@@H]([C@H]4C)[C@@]57OO6)cc3)nn2)cc1
Measured: 83.2% (inactive)
//
Molecule: Cc1c2oc3c(C)ccc(C(=O)N[C@@H]4C(=O)N[C@H](C(C)C)C(=O)N5CCC[C@H]5C(=O)N(C)CC(=O)N(C)[C@@H](C(C)C)C(=O)OC4C)c3nc-2c(C(=O)N[C@@H]2C(=O)N[C@H](C(C)C)C(=O)N3CC(=O)C[C@H]3C(=O)N(C)CC(=O)N(C)[C@@H](C(C)C)C(=O)OC2C)c(N)c1=O (some centres not stated)
Measured: -17.7% (active)
//
Molecule: COC(=O)C[C@](O)(CCC(C)C)C(=O)O[C@@H]1C(OC)=C[C@]23CCCN2CCc2cc4c(cc2[C@H]13)OCO4
Measured: -19.4% (active)

Origin of measurements: PubChem BioAssay (NCI)
